Values compiled from PubChem BioAssay.

Protocol Text: inhibitors of mutant huntingtin aggregation, primary screen, imaging, exon1htt(103Q)mCFP cells, high-content imaging (AID 483);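 also: compound exposure lasted 3 days before fixation; percent of the per-plate median nuclei count of sample wells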
Condition Details: exon1htt(103Q)mCFP cell line, aggregate imaging, at 2 µM; measured here: cell count, toxicity
I'd be grateful if you could share measured nuclei count for these entries.
Give the value, in units of %, as a plain number.

What the record says about COC(=O)c1ccc(-n2nnnc2SCc2nn[nH]n2)cc1 : nuclei count is 99.6

According to the records, this molecule Cc1nc2ccc(NC(=O)NCc3ccco3)cc2s1 displays nuclei count of 100

nuclei count for CCOCCn1c(CN2CCN(CC)CC2)nc2c1c(=O)n(C)c(=O)n2C is 92.7

nuclei count reported for this molecule C[C@H](NC(=O)NCc1cccs1)C(=O)O : 102

# nuclei count (molecule: COc1ccccc1N1CCN(C(=O)c2c(-c3c(Cl)cccc3Cl)noc2C)CC1 ) is 90.6

# nuclei count (molecule: CCS(=O)(=O)N1CCC(C(=O)NCCc2ccc(C)cc2)CC1 ) is 81.2

Value of measured nuclei count for the entry Cc1ccc(-c2nc(=S)c3c(n2Cc2ccco2)CCCC3)cc1 : 77.9

Sample CCCCC(=O)NCCc1cc2ccc(OC)cc2[nH]c1=O ; nuclei count observed: 84.4

Memo: Cc1ccc(NC(=O)C2CCCN(S(=O)(=O)c3cnc[nH]3)C2)c(Br)c1 (stereo not drawn) , reported nuclei count: 82.3

molecule N#CCCNCC1(c2ccccc2)CCCC1 , nuclei count observed: 108

For reference, reported nuclei count for CCS(=O)(=O)N1CCC(C(=O)NC2CCCCCCC2)CC1 stands at 104

Entry under test: CC1Cn2c(nnc2-c2ccc(F)cc2)S1 (stereo not drawn) . Its nuclei count was 119

Input CC(C)CC1NC2(C(=O)N(C)c3ccccc32)C2C(=O)N(C(C)C)C(=O)C12 (stereo not drawn) . Output nuclei count: 72.1

The reported value for COc1ccc(N2CCN(C(=O)c3c(-c4ccccc4)noc3C)CC2)cc1 in terms of nuclei count is 90.4

GET /value?item= O=C1NC2=C(C(=O)CCC2)C(c2ccc3ncccc3c2)N1 (stereo not drawn) &field=nuclei count returns 126

For this molecule ( CCCc1nnc(NC(=O)NCCN2C(=O)C3C4C=CC(C4)C3C2=O)s1 (stereo not drawn) ), measured nuclei count is 76

Lab book: nuclei count of CCOc1ccc(Nc2nc(Cc3nnc(SCC(N)=O)o3)cs2)cc1 noted as 104

Record Cc1ccc(Cn2ccc(NC(=O)c3cc(-c4cccs4)on3)n2)cc1 . Reported nuclei count: 96.9

For record O=C(NC1CCCCC1)c1ccc(S(=O)(=O)N2CCCCC2)cc1 the listed nuclei count is 96.4

Reported nuclei count for O=C(CN(C1CCCCC1)S(=O)(=O)c1ccccc1)NCc1cccnc1 was 110

Memo: CN(C)c1ccc(CNn2cnnc2)cc1 , reported nuclei count: 68.8

Entry Cc1cc(C)n(-c2nc3nonc3nc2-n2nc(C)cc2C)n1 , nuclei count reported as 110

Given item Cc1ccccc1OCc1nnc2n1CC(C)S2 (stereo not drawn) , the value recorded as its nuclei count is 131

The molecule CCCC(=O)Nc1nnc(CC(=O)OCC)s1 showed nuclei count equal to 95.6

For record Cn1c(=O)c2c(nc(CN3CCOCC3)n2CC(O)CO)n(C)c1=O (stereo not drawn) the listed nuclei count is 103

# nuclei count (molecule: CCCCN(CC)CCCNC(=O)c1cc2c(=O)n(C)c3ccccc3c2n1C ) is 81.6

The molecule COc1ccc2nc3oc(C(=O)NC4CCN(Cc5ccccc5)CC4)cc3cc2c1 showed nuclei count equal to 107

nuclei count reading for CCOC(=O)c1oc2cccc(OC(C)=O)c2c1C : 97.4

Just so you know, measured nuclei count for Cc1cc(C)n2cc(CSc3nnnn3-c3ccc(Cl)cc3)nc2n1 came out at 99.6

For Cc1nn(C)c(C)c1S(=O)(=O)N1CCCC(C(=O)N2CCN(c3ccc(Cl)cc3)CC2)C1 (stereo not drawn) the molecule record lists nuclei count as 94.8

For record CN(C)S(=O)(=O)c1cccc(C(=O)Nc2cccnc2)c1 the listed nuclei count is 103

Recorded nuclei count (molecule Cc1ccc2cc(C(c3nnnn3CC3CCCO3)N3CCCC4(CCCCC4)C3)c(=O)[nH]c2c1 (stereo not drawn) ): 106

Lab note: measured nuclei count of Cc1ccc(C)c(S(=O)(=O)n2cnc3ccccc32)c1 was 79.3

response.value for CC1=C(C(=O)OC(C)C)C(c2ccccn2)n2ncnc2N1 (stereo not drawn) (field: nuclei count) = 79.5

Lab note: OC(CNCC1COc2ccccc2O1)COCc1cccs1 (stereo not drawn) gave nuclei count of 105

Record Cc1[nH]nc2c1C(=O)CC(C)(C)C2 . Reported nuclei count: 118

Consider COc1cccc(OCc2nc3ccccc3[nH]2)c1 . Its measured nuclei count is 102

Sure, the documented nuclei count for CCn1c(C(=O)N2CCCC(C(=O)NCCCc3ccccc3)C2)cc2sccc21 (stereo not drawn) is 123

Notebook: O=C(Nc1ccc2snnc2c1)N1CCN(c2ccccc2)CC1 , nuclei count read as 101

COc1cc(C)c(N)cc1C(C)C has a reported nuclei count of 81.4

// nuclei count value for CC/C(O)=C(/C#N)c1nnc2n1CCCCC2 : 115

For record CC1CCc2nn(CC(=O)NCCN3CCOCC3)cc2C1 (stereo not drawn) the listed nuclei count is 94.5

Kindly note the recorded nuclei count for Cc1nc2ccc(S(=O)(=O)NCC(=O)N3CCc4ccccc4C3)cc2s1 , which is 91.2

Consider CC1C=CC(C)C(C(=O)O)C1C(=O)O (stereo not drawn) . Its measured nuclei count is 46.5

What the record says about O=C(COc1ccccc1)Nc1nc2ccccc2[nH]1 : nuclei count is 114

Recorded result, CCn1cc(C(C)NC(=O)COc2ccc(Cl)cc2C)c(C)n1 (stereo not drawn) , nuclei count: 130

nuclei count for O=C(CNC(=O)c1cc2ccccc2o1)NCc1cccs1 is 107

In plain terms, CCN(CC)S(=O)(=O)N1CCC(C(=O)NC2CCCc3ccccc32)CC1 (stereo not drawn) has a documented nuclei count of 95
